- target_desc: Aurora-2 (Homo sapiens, UniProt O14965)
- Sequence (O14965 1-403): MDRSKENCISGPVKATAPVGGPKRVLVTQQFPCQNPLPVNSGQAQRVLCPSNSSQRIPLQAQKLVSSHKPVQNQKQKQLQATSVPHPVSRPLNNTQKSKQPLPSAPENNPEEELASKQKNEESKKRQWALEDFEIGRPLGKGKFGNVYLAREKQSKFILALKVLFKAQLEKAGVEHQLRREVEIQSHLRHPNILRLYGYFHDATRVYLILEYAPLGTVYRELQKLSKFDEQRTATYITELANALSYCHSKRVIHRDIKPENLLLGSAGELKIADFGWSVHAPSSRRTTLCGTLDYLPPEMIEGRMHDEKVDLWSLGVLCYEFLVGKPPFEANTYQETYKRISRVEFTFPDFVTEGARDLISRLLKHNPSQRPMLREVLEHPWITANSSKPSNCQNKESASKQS
Entries and their Ki values follow.
test_readout: Ki

[
  {
    "molecule": "CCN(CC)C(=O)c1ccc(-c2cnc3c(-c4ccccn4)c(N)nn3c2)nc1 [Compound V-98]",
    "target_desc": "Aurora-2 (Homo sapiens, UniProt O14965)",
    "test_readout": "Ki",
    "obs_value": "< 500 nM"
  },
  {
    "molecule": "Cc1cnc2c(-c3cc(N[C@@H](C)CO)ncn3)c(N)nn2c1 [Compound V-295]",
    "target_desc": "Aurora-2 (Homo sapiens, UniProt O14965)",
    "test_readout": "Ki",
    "obs_value": "500 to 5000 nM"
  },
  {
    "molecule": "CN(C)CCNc1ccc(-c2cnc3c(-c4ccccn4)c(N)nn3c2)cn1 [Compound V-159]",
    "target_desc": "Aurora-2 (Homo sapiens, UniProt O14965)",
    "test_readout": "Ki",
    "obs_value": "500 to 5000 nM"
  },
  {
    "molecule": "Nc1nn2cc(-c3ccc(C(=O)NCCF)cn3)cnc2c1-c1ccccn1 [Compound V-73]",
    "target_desc": "Aurora-2 (Homo sapiens, UniProt O14965)",
    "test_readout": "Ki",
    "obs_value": "500 to 5000 nM"
  },
  {
    "molecule": "Nc1nn2cc(-c3ccc(CN4CCNCC4)cc3)cnc2c1-c1ccccn1 [Compound V-217]",
    "target_desc": "Aurora-2 (Homo sapiens, UniProt O14965)",
    "test_readout": "Ki",
    "obs_value": "< 500 nM"
  }
]
